Recorded values, source the EternaBench riboswitch data.

System: MS2 coat protein
TEST_PROTOCOL: apparent Kd, MS2 coat protein; higher = weaker binding; RNA-MaP array
SETTINGS: designed as: ON switch for theophylline; no ligand
In this section we review reported apparent Kd values for a set of sequences.

MONOMER_SEQUENCE | TESTED_ON | UNIT_ABBREV | apparent Kd
ACCUCAAUGGAUGAUACCAGCUCAAGGACGAACAUGAGGAUCACCCAUGUGACGUGGUGUAGCCCUUGGCAGCAUACUGACACCU | MS2 coat protein | nM | 39.4
CGCGUCCCGGACGAUACCAGAUAUGAGCGACACAUGAGGAUCACCCAUGUCAAUCAUGAGAUCCCUUGGCAGCGUUUGCACAACU | MS2 coat protein | nM | 162
GUGGGACAUGAGGAUCACCCAUGUGACGAUACCAGUCAAUUGAUGGACCCUUGGCAGCGUUGGUAUUGCGGGUAGGCGAGAUAAG | MS2 coat protein | nM | 43.2
CAACUGGCAGAGGAUACCAGAUCAUUUAGAAACAUGAGGAUCACCCAUGUCGUAAGGAUAAUCCCUUGGCAGCCUAUCCGCCUCG | MS2 coat protein | nM | 13.2
GGCUAACAUGAGGAUCACCCAUGUAUUGAUACCAGUAUUUGAAAAUACCCUUGGCAGCAAAUGAAGAGCGUAGCAGGGUCGAUUA | MS2 coat protein | nM | 11.3
ACCGGCACCUAGGAUACCAGAUCCACAACAAACAUGAGGAUCACCCAUGUAUAAAGUGGUAUCCCUUGGCAGCCUGUGACAAUCG | MS2 coat protein | nM | 16.5
CGUAGGAUCGUGGAUACCAGUACCGCCCACGACAUGAGGAUCACCCAUGUAGGUAAUCUUUACCCUUGGCAGCCAUUUUUUUCUG | MS2 coat protein | nM | 45.6

---

Tested on: MS2 coat protein
TEST_PROTOCOL: apparent Kd, MS2 coat protein; higher = weaker binding; RNA-MaP array
SETTINGS: designed as: ON switch for flavin mononucleotide; no ligand
Class (required): determined from apparent Kd; valid ranges are low range (below 20 nM), mid range (20 nM to below 60 nM), high range (60 nM or more)

MONOMER_SEQUENCE | ASSIGNED_CATEGORY
CUGGUUGCCGGUUGCGACACAUGAGGAUCACCCAUGUAUACCGAGGAUAUGUGGAGCUGUAGAUGACAGAAGGCGGUGAGUAUC | mid range
ACUAAACAUGAGGAUCACCCAUGUAAUUGAAGCUAAGGAUAUCAGAAGAAUGGUGAUUCAUGAGAAGGAAGCGAUU | high range
CAGACCCGGCGGGAGGAUAUACGAGAGAACACAUGAGGAUCACCCAUGUUGCACUAAACAGCGUGGUAGAAGGCCCAUCAUCUGUA | mid range
ACUCUAGAAUAGAAGGCCUGAGGAAGUAGUAAAGGAGGAUAUAUCAUACGAAAUUCACAUGAGGAUCACCCAUGUUGCGCAGAC | mid range
UCAAUUGAGGUCAAGGAUAUCUAGAAACAGACAUGAGGAUCACCCAUGUGCACAGCAUAAACGAGAGAGAAGGUGAGGCAUAUUGA | mid range
CCGACUCGCGUAGAGGAUAUGUAAUAAAAUACAUGAGGAUCACCCAUGUGAGACCGGGUGUCUCCACAGAAGGCUAUCGUGUCGUA | high range
GUCAAAUGUCAGAAGGUAGUGAUGUACUAAGGCUAAGGAUAUGAAGAAAAGAAAAUUACCGUUGACAUGAGGAUCACCCAUGUC | low range
AUAUCAGGGUAGAAGGCAGCAUCAACAUGAGGAUCACCCAUGUAUAGGCACGUAGCCGCACGUGCUGAGGAUAUACGUUAUAAU | low range
CCUUCAGAUGAGAAGGCCAUCUACGGCUGGACACGGCAGUAACAUGAGGAUCACCCAUGUUUAAUGGAGGAUAUCAACGGAAGC | low range
ACAGUACAUGAGGAUCACCCAUGUAGAAGAUGCUCAGGAUAUUGUGAGUCAGGUUAUGUACAAGAAGGGAGGCACG | mid range
GGUCAACGAUUUUACAUGAGGAUCACCCAUGUUACGGUCGCCGAGGAUAUGUCAGGAUUAUCACAACAGAAGGCGGAAGACACC | low range
CCUAACCACAAGAAGGAUGAGAUGCGGCAUUUCAUAGGAUAUUGAUCACAUGAGGAUCACCCAUGUUGCCGUAAGGCGCUAGUC | high range
AGACAUGGCGGAUAGGAUAUGUGGGCGUCUACAUGAGGAUCACCCAUGUUGCUCGGAUGCAAUCUACAGAAGGAUCGACCCAGUGC | high range
AGACUUAGACAAGGAUAUGGUGAGGCCACCUUACAUGAGGAUCACCCAUGUCUAGAGAUCCUGUGCCAGAAGGUGUAGUUGGAC | high range
CCAUGACAUGAGGAUCACCCAUGUGGGUGCAGACAAGGAUAUAGUAAGAAUAGGAUAGAUCUAGAAGGUGUCAUUA | high range
UGACUAAAGGAGAAGGGCCACUCCAUUACUUCGGCAGGAUAUCCAUAAACAUGAGGAUCACCCAUGUACAUACAUUGGACGGCG | low range
AGGUCCGGAGAGAAGGCCGACUUUGUAAUACACGGAGGAUAUCUACCACAUGAGGAUCACCCAUGUCCACACCGCAAGUUGUAA | low range
UAGAGCUCGCAAGGAUAUAACGCACAGAAACAUGAGGAUCACCCAUGUGGAAAGGAUCAACGUCGUUAGAAGGUGCAGAAAUAU | mid range
UAAGUACGACAGAAGGGAUGAAAUUAUAACAAAUCAGGAUAUGUGAGUUACCAAUGCAAGCAUUACAUGAGGAUCACCCAUGUG | low range
GUCAUCUGUUUAGGAUAUGCGGUAGACACCGGGCGAGAAACAUGAGGAUCACCCAUGUUCGGAUUGCAGAAGGAAACGGCAAUA | low range
ACAUGAGGAUCACCCAUGUCGAAGCACGCGCCACCUUCAAGCAGAAGGAAGUGACAAGUACUAGCUUAGGAUAUGCUCAAAGGU | low range
CCAUGCGAUAUAGUGAUACAUGAGGAUCACCCAUGUAAAGUGAGAAGGCCAAAUUAAUACUAAGUGGAGGAUAUCAUCGUGAGC | mid range
AGACAUGAGGAUCACCCAUGUUGCUGUACAGGAGUUAAAGUCUAGGAUAUUGGGUCAGAAAGCGACAAGAAGGAGACACGCCAG | low range
CGUAUUGCUCGUUAGGAUAUCCAAUCUGAAACAUGAGGAUCACCCAUGUAGCCAGCAUCACAUGAGGAGAAGGAACAAGAUAAACG | low range
UCACGUCGCCGAGGAUAUGAUUACCGCUCUCCAUCAGAAGGCGGCGCGUGGUCCACAACAUGAGGAUCACCCAUGUCGAUUGAG | high range
GUGCAGUUAUUAGGAUAUAAGACAUGGGACAUGAGGAUCACCCAUGUCGUAAGAAAUACCGUUGAUUAGAAGGAAUUCCGGCAC | high range
GUGAAGAUCCUAGGAUAUGAGACACCCGUAAGCUCAGAAGGAGGACGCGUAGAGGGUAACAUGAGGAUCACCCAUGUGAGUAAG | low range
